- experimental-target: T1, P2-AA-12HAA-L
- T1 chain: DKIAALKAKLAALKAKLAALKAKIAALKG
- experiment-notes: two-hybrid library CCmax;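 further: natural log of median RNA to DNA barcode read ratio; higher means stronger binding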
- run-conditions: mean of both orientations
// reported interaction score for each item listed
observed-property: interaction score

>>> observed("DEIAALEAELAALEAELAALEAEIAALEG [P1-AA-12HAA-L]")
2.35
>>> observed("DEIAALEAESAALEAESAALEAEIAALEG [P1-AA-12HAA-S]")
2.15
>>> observed("DEIAALEAEIAALEAEIAALEAEIAALEG [P1-AA-12HAA-I]")
2.28
>>> observed("DEIAALEAEHAALEAEHAALEAEIAALEG [P1-AA-12HAA-H]")
1.83

Where do these numbers come from? They come from paper PMC10397247.
